# maps each entry to its melting point

Consider the following illustrative entries.
compound=COCCOc1ccc(CCCO)c(Oc2ncc(Cl)cc2Cl)c1 measured_metric="melting point" result="83.9 to 84.5 °C"
compound="COC(=O)CCNc1ccccc1CNC(=O)C1Cc2ccccc2N1S(=O)(=O)c1ccc(-c2cccc(C(F)(F)F)c2)cc1 (stereo not given)" measured_metric="melting point" result="60 °C"
compound=Nc1ccnc(Cl)c1Cl measured_metric="melting point" result="146 to 148 °C"

Any idea what melting point was measured for CCN1CCN(C(C)C(=O)NC2(c3ccc4occc4c3)C(=O)Nc3cc(Cl)cc(Cl)c32)CC1 (single isomer, unassigned; (+)) ?
137 to 138 °C

Same again, this time with CCOC(=O)c1ccc(CC(=O)NC(CC(C)C)c2ccccc2N2CCCCC2)cc1OCC (stereo not given)
111 to 112 °C

---

# melting point listing for each entry below

Past entries and their recorded results:
compound=CCc1c(C)c(=O)oc2cc(O)ccc12 measured_metric="melting point" result="184 °C"
compound=O=Cc1ccc(CNc2ccccn2)c(Cl)c1 measured_metric="melting point" result="122 to 123 °C"

Look up melting point: CC(C)(C)c1cc(-c2n[nH]c(=O)[nH]2)cc(C(C)(C)C)c1O
276 to 280 °C

Entry FC(F)(F)c1ccc(CN2CC3(COc4ccc(-c5ccncc5)cc43)c3ccccc32)o1 (configuration not stated) please
108 to 110 °C

Query NS(=O)(=O)c1cc2c(cc1Cl)C(=O)N(Cc1cccnc1)C2=O next
210 to 212 °C

Try this compound next: CCNc1ccc2c(c1)CN(c1cc3c(cc1F)c(=O)c(C(=O)O)cn3CC)C2
246 to 248 °C

---

melting point overview

structure_notation=Cc1c(C(=O)Nc2ccc(N3CCC(c4ccccc4)CC3)c(C#N)c2)cnn1-c1ccc(Cl)cc1 result="186 to 188 °C"
structure_notation=CCc1nc2c(N)nc(C)c(C)c2n1CCOCCNC(=O)N1CCOCC1 result="182 to 184 °C"
structure_notation=c1ccc(-n2c(Cn3ccnc3)nc3cccnc32)cc1 result="146 to 148 °C"
structure_notation=CC(=O)Oc1c(C)cc(NC(=O)NC2=C(c3ccccc3)c3ccccc3CS2)cc1C result="206 to 208 °C"

Please examine the following record next.
State the recorded melting point for this entry: CCOCc1nc2c(N)nc(C)cc2n1CCCCNC(=O)C(C)C
170 to 172 °C

---

Collected melting point values appear next to each entry.

Requested read-out: melting point. Entry: CCCCNc1nc(N)nc(-c2ccc(Cl)c(Cl)c2)n1
176 to 179 °C

Further, for CN(C)C(=O)c1ccc2c(c1)CC(=O)N2 ?
147 to 148 °C

COc1cc(C(C)=O)ccc1OCCN1CCN(c2n[nH]c3cc(Cl)ccc23)CC1 , same question.
154 to 156 °C

How about this compound: CC(C)CCC(C)(C#N)N=NC(C)(C#N)CCC(C)C (stereo unspecified)
56 to 58 °C

Please answer likewise for CC1(C)C=Cc2c(cc(O)c3c(=O)c4cc5ccccc5cc4[nH]c23)O1
225 °C

---

# maps each entry to its melting point

Record excerpt, results attached:
compound=COc1cc(C)nc(OC)c1NC(=O)CN1CCN(CCSc2nc3ccccc3o2)CC1 result="113 to 115 °C"
compound="CCCCCCCC1=CC(=O)OC1(O)CNc1ccccc1 (stereo unspecified)" result="172 to 174 °C"
compound="Cc1[nH]c2ccc(OC(C)C(C)N3CCCC3)cc2c1C(=O)OCc1ccccc1 (stereo unspecified)" result="94 to 98 °C"
compound=Cc1c(Oc2ccc(C(=O)NC(C)C)cc2)c2cc(F)ccc2n1CC(=O)O result="218 to 219 °C"
compound=O=[N+]([O-])c1ccc2c(c1)CCN(Cc1ncn[nH]1)C2 result="163 to 166 °C"

Which melting point reading was recorded for the compound CCC=Cc1nc2ccccc2n1Cc1ccc(C(=O)O)cc1 ?
210 °C

Would you mind doing CC(CNCC(O)c1ccccc1)OCc1ccccc1 (stereo unspecified) as well?
90 to 100 °C

Then what about the compound CC(C)c1cc(C(=O)NCc2ccccc2)c(N)s1 ?
170 to 172 °C

Now the same for O=C(O)c1cc(C(F)(F)F)ccc1Sc1ccccc1
140 to 145 °C

Next compound: Cc1cnc2ccc3c(c2c1)OC(CN1CC=C(c2c[nH]c4ccccc24)CC1)CO3 (stereo unspecified)
211 to 213 °C

Lookup O=C(O)C1CCN(Cc2ccc(Cl)c(Cl)c2)CC1
232 °C

Then what about the compound Cc1ccnc(C(=O)n2cc(CC(=O)N(C)C)c3ccc(Cl)cc32)c1 ?
208 °C

Param item: CCCN(C)c1ccc(-c2c(Cl)c(=O)c2=O)cc1
162 °C

Now the same for CC(C)CCc1c(C(C)C)nc(C(C)C)c(CO)c1-c1ccc(F)cc1
43 to 45 °C

Please do the same for CNC(=O)OC(Cn1cncn1)c1ccc(Cl)cc1Cl (stereo unspecified) as well.
204 °C

What do we get for Cc1ccc(C(=S)c2cc(F)cc3c2NC(=O)C3)cc1 ?
168 to 174 °C

Repeat with NC(=O)N(O)[C@@H]1COc2cc(OCc3ccccc3)ccc21
192 to 193 °C

---

Measured metric: melting point (°C)

compound="N#CC1=C(c2c[nH]c3ccccc23)Nc2n[nH]cc2C1c1cccc2nonc12 (stereo unspecified)" numeric_readout=238

[A] CC(=O)NC1c2ccccc2-c2[nH]c(=O)c3nccn3c21 (stereo unspecified)
[B] COc1ccc(-c2ccc3ccc(OC)cc3c2)cc1
Please indicate which entry, A or B , has the lower recorded melting point value. API: response body contains the label of the selected item.
B

---

Measured metric: melting point

Worked cases, melting point given:
molecule="Cc1nc(-c2ccccc2)nc(-c2cccc([N+](=O)[O-])c2)c1C(C)N1CCN(C)CC1 (stereo unspecified)" result="130 to 131 °C"
molecule=CCc1nc2c(N)nc3cc(OCc4nc5ccccc5s4)ccc3c2s1 result="211 to 212 °C"

Tell me the measured melting point of CC1(C(=O)C(=Cc2ccc(Cl)cc2Cl)n2cncn2)COCOC1 , please.
133 to 135 °C

And CN(C)n1cc(C(=O)O)c(=O)c2cc(F)c(Cl)cc21 ?
255 to 256 °C

# repeat for CC(N/C(C#N)=C(\N)C#N)c1ccc(Cl)cc1 (stereo unspecified)
145 to 146 °C

Entry to check: Cc1nnc2n1-c1sc(CCCN3CCOCC3)cc1C(c1ccccc1Cl)NC2 (stereo unspecified)
135 to 138 °C

Here is the next molecule: O=C(NCc1ccccc1)c1ccccc1I
122 to 123 °C

Note, next up: CC(=O)NC[C@H]1CN(c2ccc(C=C(Br)Br)c(F)c2)C(=O)O1
177 to 179 °C

Try the molecule CC1=C(c2ccc(C(=O)N3Cc4cccn4Cc4ccccc43)cc2C)C(C)CCC1 (stereo unspecified)
133 to 135 °C

Okay, and CCOC(=O)C1CCC(c2ccccc2)n2c(=O)n(CCl)c(=O)n21 (stereo unspecified) ?
104 to 106 °C

---

Item-by-item account of melting point

compound=O=C(O)CCc1ccc2c(c1)C(=O)c1ccccc1CO2 result="128 to 130 °C"
compound=O=C(Nc1ccc(-n2ccnc2)cc1)Nc1ccc(C(F)(F)F)cc1 result="209 to 213 °C"

Kindly consider the entry below.
Looking for the measured melting point of NS(=O)(=O)c1ccc(-n2nc(C(F)(F)F)cc2-c2ccc(-c3ccco3)cc2)cn1 , can you help?
140 to 170 °C

---

Below, each entry is listed with its recorded melting point.

molecule=CN(C)c1ccc(NC(=O)c2cc3cc([Si](C)(C)C)ccc3n2Cc2cccc(F)c2)cn1 result="204 to 205 °C"

Give the measured melting point of CN1CCN(c2nc(-c3ccccc3)c3ccccc3n2)CC1 .
101 to 122 °C

Try CCC(=O)N(Cc1ccc(OC)cc1)c1cc(F)cc(-c2nnn[nH]2)c1 next.
158 to 160 °C

COc1ccc(CN2C(=O)[C@@H](N3C(=O)c4ccccc4C3=O)[C@H]2c2ccc(Cl)cc2)c(OC)c1 (relative stereo) ?
178 to 180 °C

---

The entries below come with measured melting point values attached.

compound=O=C(Nc1cccnc1)c1nnc2ccccc2c1O result="326 to 328 °C"
compound=Nc1cccc2c1CN(c1c(F)cc3c(=O)c(C(=O)O)cn(-c4ccc(F)cc4)c3c1F)C2 result="269 to 274 °C"
compound=Cc1cccc(-c2cc(C(F)(F)F)n3ncc(C#N)c3n2)c1 result="202 °C"
compound=CCN(CC)C(=O)CCCN(C(=O)Nc1cc(OC)cc(C(C)(C)C)c1O)c1ccccc1 result="131 to 133 °C"
compound="Cc1ccc2c(c1)OC1(O)c3ccccc3C(=O)C21O (stereo unspecified)" result="145 to 147 °C"

Dear colleague, I am looking for the recorded melting point of the following compound: CC1(C)NC2(CCCCC2)NC1(C)C
31 to 32 °C

What would you report for COC(=O)C(Cc1ccc(OCC(=O)Nc2ccc(Oc3ccc(C45CC6CC(CC(C6)C4)C5)cc3)cc2N(C)C(=O)OC(C)(C)C)cc1)OCc1ccc(F)cc1 (stereo unspecified) ?
52 to 56 °C

Cool, now O=C1C=CC2=CN=C(Cc3ccccc3)N3CCC(=C23)N1
226 to 228 °C

Proceed to NC(=O)C(CC1CCCC1)c1ccc(Cl)c([N+](=O)[O-])c1 (stereo unspecified)
112 to 114 °C

Proceed to CC(=O)C(C)(O)C1(C)OC(C)=CC1=O (stereo unspecified)
95 to 96 °C

Entry to check: O=C(O)CCCNC(=O)c1ccccc1NC(=O)c1ccc(Cl)cc1
182 to 184 °C

Please do the same for CC(CO)n1cnc2cnc3ccccc3c21 (stereo unspecified) as well.
170 to 174 °C

Another compound to look at: CN1CCNC1=NC(c1ccccc1)c1ccccc1
226 to 228 °C

Same read-out for COC(=O)c1c(-c2cccc(F)c2)c2cc(OCc3ccccc3)ccc2c(=O)n1CC(C)C ?
127 to 128 °C

COc1ccc(N2CCN(c3c(C)c(C)c4c(c3C)C(N3CCCC3)C(C)(C)O4)CC2)cc1 (stereo unspecified) ?
124 to 126 °C
